System: rodent lifetime carcinogenesis bioassay, tumor incidence TD50
Experiment: carcinogenic potency in animals, long-term in vivo studies, CPDB compilation (AID 1745844)
Details: mouse; strain Swiss albino; females; in drinking water; site: kidney; lesion: adenoma; dosed 72 weeks; study length 72 weeks
property measured: TD50 (mg/kg/day)
Answer format: numeric, mg/kg/day implied, no suffix.

# compound `CN(C)N` ; its TD50 = 148

---

System: rodent lifetime carcinogenesis bioassay, tumor incidence TD50
Assay: carcinogenic potency in animals, long-term in vivo studies, CPDB compilation (AID 1745844)
Conditions: rat; strain Fischer 344; males; by gavage; site: lung; lesion: several types; types named in the paper; dosed 37 weeks; study length 55 weeks
property measured: TD50

# molecule `NC(=O)N(CCO)N=O` ; its TD50 = 0.0776 mg/kg/day

---

System: rodent lifetime carcinogenesis bioassay, tumor incidence TD50
Assay: carcinogenic potency in animals, long-term in vivo studies, CPDB compilation (AID 1745844)
Conditions: rat; strain Fischer 344; males; by gavage; site: thyroid gland; lesion: follicular-cell carcinoma; dosed 103 weeks; study length 105 weeks
property measured: TD50 (mg/kg/day)
Answer format: numeric, mg/kg/day implied, no suffix.

# molecule `BrC(Br)Br` ; its TD50 = 656

---

Tested on: rodent lifetime carcinogenesis bioassay, tumor incidence TD50
Assay: carcinogenic potency in animals, long-term in vivo studies, CPDB compilation (AID 1745844)
Conditions: rat; strain Fischer 344; males; by gavage; site: multiple organs; lesion: mononuclear-cell leukemia; dosed 104 weeks; study length 106 weeks
The source made the active and inactive calls. How the calls were made is not given here.
property measured: TD50

# compound `OC[P+](CO)(CO)CO` ; its TD50 = 2.42 mg/kg/day (inactive)

---

Test system: rodent lifetime carcinogenesis bioassay, tumor incidence TD50
Assay: carcinogenic potency in animals, long-term in vivo studies, CPDB compilation (AID 1745844)
Details: rat; strain Fischer 344; females; in feed; site: mammary gland; lesion: adenocarcinoma, NOS; dosed 103 weeks; study length 104 weeks
property measured: TD50 (mg/kg/day)
Answer format: numeric, mg/kg/day implied, no suffix.

# compound `N=C1C=CC(=C(c2ccc(N)cc2)c2ccc(N)cc2)C=C1` ; its TD50 = 232

---

Tested on: rodent lifetime carcinogenesis bioassay, tumor incidence TD50
Test: carcinogenic potency in animals, long-term in vivo studies, CPDB compilation (AID 1745844)
Conditions: rat; strain Wistar; both sexes; by gavage; site: forestomach; lesion: several types; types named in the paper; dosed 51 weeks; study length 58 weeks
property measured: TD50

# compound `CN(N=O)C(=O)Nc1nc2ccccc2s1` ; its TD50 = 1.13 mg/kg/day

---

System: rodent lifetime carcinogenesis bioassay, tumor incidence TD50
Test: carcinogenic potency in animals, long-term in vivo studies, CPDB compilation (AID 1745844)
Conditions: mouse; strain Swiss albino; males; in drinking water; site: lymph node; lesion: angiosarcoma; dosed 52 weeks; study length 52 weeks
property measured: TD50 (mg/kg/day)
Answer format: numeric, mg/kg/day implied, no suffix.

# molecule `CNNC` ; its TD50 = 1.02

---

Test system: rodent lifetime carcinogenesis bioassay, tumor incidence TD50
Test: carcinogenic potency in animals, long-term in vivo studies, CPDB compilation (AID 1745844)
Details: mouse; strain C57BL/6JfC3Hf/Nctr x BALB/cStCrlfC3Hf/Nctr; males; in drinking water; site: liver; lesion: hepatocellular carcinoma; dosed 143 weeks; study length 143 weeks
property measured: TD50

Given the compound `Nc1ccc(-c2ccc(N)cc2)cc1` and test system rodent lifetime carcinogenesis bioassay, tumor incidence TD50, the measured TD50 is 31.2 mg/kg/day
